Below is a list of entries, each paired with its recorded IC50 value.
Molecular target: JAK1 (Homo sapiens)
Sequence (P23458 whole entry): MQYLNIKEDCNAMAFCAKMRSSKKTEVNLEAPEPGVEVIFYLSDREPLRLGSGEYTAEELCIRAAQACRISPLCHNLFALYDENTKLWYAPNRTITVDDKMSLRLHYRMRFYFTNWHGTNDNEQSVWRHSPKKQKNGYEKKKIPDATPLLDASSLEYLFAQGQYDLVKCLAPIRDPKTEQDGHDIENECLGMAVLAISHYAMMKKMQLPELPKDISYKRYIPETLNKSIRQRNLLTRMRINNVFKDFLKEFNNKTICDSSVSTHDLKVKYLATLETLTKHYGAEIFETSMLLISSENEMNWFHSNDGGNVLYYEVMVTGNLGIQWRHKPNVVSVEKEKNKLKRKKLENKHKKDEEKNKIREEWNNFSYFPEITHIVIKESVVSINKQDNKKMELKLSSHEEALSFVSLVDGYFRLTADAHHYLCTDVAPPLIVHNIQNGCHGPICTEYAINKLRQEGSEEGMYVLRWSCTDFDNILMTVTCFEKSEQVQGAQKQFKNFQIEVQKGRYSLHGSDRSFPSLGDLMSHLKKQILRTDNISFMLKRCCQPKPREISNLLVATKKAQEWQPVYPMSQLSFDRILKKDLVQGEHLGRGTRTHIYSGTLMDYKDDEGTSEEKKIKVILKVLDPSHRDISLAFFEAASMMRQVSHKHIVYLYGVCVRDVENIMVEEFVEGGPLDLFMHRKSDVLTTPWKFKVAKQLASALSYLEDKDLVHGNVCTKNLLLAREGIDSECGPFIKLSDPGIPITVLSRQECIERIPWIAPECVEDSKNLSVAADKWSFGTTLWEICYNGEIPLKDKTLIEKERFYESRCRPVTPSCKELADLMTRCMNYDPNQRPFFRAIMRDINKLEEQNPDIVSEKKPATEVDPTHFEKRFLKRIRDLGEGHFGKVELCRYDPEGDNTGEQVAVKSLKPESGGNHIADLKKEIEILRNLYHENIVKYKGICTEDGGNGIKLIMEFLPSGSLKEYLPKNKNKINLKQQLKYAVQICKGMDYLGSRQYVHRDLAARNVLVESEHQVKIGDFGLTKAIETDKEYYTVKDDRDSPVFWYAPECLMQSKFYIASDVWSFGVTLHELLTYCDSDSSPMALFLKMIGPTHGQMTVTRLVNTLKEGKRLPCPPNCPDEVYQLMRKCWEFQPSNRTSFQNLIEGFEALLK
Assay: Cellular JAK1 activity assay: IL-6-stimulated STAT3 phosphorylation in TF-1 cells
Type: cell-based
Design: endogenous in cells; host or cells: TF-1 cells (ATCC)
Settings: IL-6 (30 ng/mL), pSTAT3, read-out: IC50 Cell JAK1

QUERY: Which IC50 reading was recorded for the compound CCC(C(=O)Nc1nccc2c(-c3nc(Nc4cccc(S(C)(=O)=O)c4F)ncc3C)c[nH]c12)N1CC2CCC(C1)N2C (stereo not shown) [Example 23] ?
RESULT: 100 to 1000 nM

QUERY: Which IC50 reading was recorded for the compound CCC(C(=O)Nc1nccc2c(-c3nc(Nc4cccc(S(C)(=O)=O)c4F)ncc3C)c[nH]c12)N1CCN(C)CC1 (stereo in doubt) [Example 21] ?
RESULT: < 100 nM

QUERY: Which IC50 reading was recorded for the compound COc1nn(C)cc1Nc1ncc(C)c(-c2c[nH]c3c(NC(=O)C(C(C)C)N4CCN(C)CC4)nccc23)n1 (stereo not shown) [Example 6] ?
RESULT: 100 to 1000 nM

QUERY: Which IC50 reading was recorded for the compound CCC(C(=O)Nc1nccc2c(-c3nc(Nc4cccc(S(C)(=O)=O)c4F)ncc3F)c[nH]c12)N1CCN(C)CC1 (stereo not shown) [Example 27] ?
RESULT: 100 to 1000 nM

QUERY: Which IC50 reading was recorded for the compound CCC(C(=O)Nc1nccc2c(-c3nc(Nc4cccc(S(C)(=O)=O)c4F)ncc3C)c[nH]c12)N1CC2(CCN(C)CC2)C1 (stereo not shown) [Example 24] ?
RESULT: 100 to 1000 nM

QUERY: Which IC50 reading was recorded for the compound COc1nn(C)cc1Nc1ncc(C)c(-c2c[nH]c3c(NC(N)=O)nccc23)n1 [Example 12] ?
RESULT: < 100 nM

QUERY: Which IC50 reading was recorded for the compound COc1nn(C)cc1Nc1ncc(C)c(-c2c[nH]c3c(Nc4cn(C)nc4OC)nccc23)n1 [Example 5] ?
RESULT: 100 to 1000 nM
